Target: FGFR2 (Homo sapiens (Human), UniProt P21802)
Sequence (P21802 22-821): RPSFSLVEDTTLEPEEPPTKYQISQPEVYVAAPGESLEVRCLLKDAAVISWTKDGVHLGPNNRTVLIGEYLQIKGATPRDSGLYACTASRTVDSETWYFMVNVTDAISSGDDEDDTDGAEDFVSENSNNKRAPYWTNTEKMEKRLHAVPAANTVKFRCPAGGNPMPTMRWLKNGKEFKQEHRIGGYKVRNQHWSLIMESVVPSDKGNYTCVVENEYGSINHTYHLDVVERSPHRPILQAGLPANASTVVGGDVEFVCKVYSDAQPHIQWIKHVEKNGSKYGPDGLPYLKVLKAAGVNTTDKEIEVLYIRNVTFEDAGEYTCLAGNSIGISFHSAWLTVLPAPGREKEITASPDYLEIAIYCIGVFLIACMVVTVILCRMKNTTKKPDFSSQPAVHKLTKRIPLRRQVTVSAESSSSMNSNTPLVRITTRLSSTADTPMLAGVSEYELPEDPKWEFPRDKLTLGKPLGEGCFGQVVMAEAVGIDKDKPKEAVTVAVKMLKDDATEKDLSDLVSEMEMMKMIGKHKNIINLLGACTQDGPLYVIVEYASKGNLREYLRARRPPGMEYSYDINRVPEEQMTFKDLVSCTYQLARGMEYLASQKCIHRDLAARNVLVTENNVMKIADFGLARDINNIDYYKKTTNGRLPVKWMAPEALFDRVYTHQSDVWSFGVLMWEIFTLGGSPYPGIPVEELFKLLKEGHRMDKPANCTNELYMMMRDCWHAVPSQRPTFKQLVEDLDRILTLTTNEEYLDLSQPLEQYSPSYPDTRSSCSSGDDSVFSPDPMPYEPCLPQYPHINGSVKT
Test: Kinase assay, binding constants (Kd), kinase-tagged T7 phage, qPCR
Reported Metric: Kd

1) COc1cc2[nH]nc(-c3cnc(N4CC[C@H](O)C4)c(C#N)c3)c2cc1O[C@H](C)c1c(Cl)cncc1Cl 1 to 20 nM
2) C[C@@H](Oc1ccc2[nH]nc(-c3cnc(N4CC5(CN(CC(F)(F)F)C5)C4)c(C#N)c3)c2c1)c1c(Cl)cncc1Cl > 300 nM
3) C[C@@H](Oc1ccc2[nH]nc(-c3ccc(N4CC5(CCCN(S(C)(=O)=O)C5)C4)nc3)c2c1)c1c(Cl)cncc1Cl 1 to 20 nM
4) CC(C)OC(=O)N1CCCC2(C1)CN(c1ncc(-c3n[nH]c4ccc(O[C@H](C)c5c(Cl)cncc5Cl)cc34)cn1)C2 > 300 nM
5) C[C@@H](Oc1ccc2[nH]nc(-c3cnc(Cl)nc3)c2c1)c1c(Cl)cncc1Cl 100 to 300 nM
6) COc1cc2[nH]nc(-c3cnc(N4CC(O)C4)c(C#N)c3)c2cc1O[C@H](C)c1c(C)cnnc1C 20 to 100 nM
7) CCOC(=O)N1CCCC2(C1)CN(c1ccc(-c3n[nH]c4ccc(O[C@H](C)c5c(C)cnnc5C)cc34)cn1)C2 1 to 20 nM
8) COc1cc2[nH]nc(-c3cnc(N4CC5(C4)CN(S(C)(=O)=O)C5)c(CN(C)C)c3)c2cc1O[C@H](C)c1c(Cl)cncc1Cl > 300 nM
9) C[C@@H](Oc1ccc2[nH]nc(-c3cnc(N4CCC5(CCCN5)CC4)nc3)c2c1)c1c(Cl)cncc1Cl 20 to 100 nM
10) COc1cc2[nH]nc(-c3ccc(N4CC(O)C4)nc3)c2cc1O[C@H](C)c1c(Cl)cnc(C)c1Cl 1 to 20 nM
11) COc1cc2[nH]nc(-c3cnc(N4CC[C@H](O)C4)c(C#N)c3)c2cc1O[C@H](C)c1c(C)cnnc1C 20 to 100 nM
12) C[C@@H](Oc1ccc2[nH]nc(-c3cnc(N4CCCN(S(C)(=O)=O)CC4)nc3)c2c1)c1c(Cl)cncc1Cl 20 to 100 nM
13) CCOC(=O)N1CCCC2(C1)CN(c1ncc(-c3n[nH]c4ccc(O[C@H](C)c5c(Cl)cncc5Cl)cc34)cn1)C2 100 to 300 nM
14) C[C@@H](Oc1ccc2[nH]nc(-c3cnc(N4CC[C@@H](O)C4)c(C#N)c3)c2c1)c1c(Cl)cncc1Cl 100 to 300 nM
15) C[C@H](Oc1ccc2[nH]nc(-c3cnc(N4CC(O)C4)c(C#N)c3)c2c1)c1c(Cl)cnc(F)c1Cl > 300 nM
16) C[C@@H](Oc1ccc2[nH]nc(-c3cnc(N4CC(C(F)F)C4)c(C#N)c3)c2c1)c1c(Cl)cncc1Cl > 300 nM
17) COc1cc2[nH]nc(-c3ccc(N4CC5(C4)CN(S(C)(=O)=O)C5)nc3)c2cc1O[C@H](C)c1c(Cl)cnnc1Cl 1 to 20 nM
18) Cc1cnnc(C)c1[C@@H](C)Oc1ccc2[nH]nc(-c3ccc(N4CCN5CCC[C@@H]5C4)nc3)c2c1 1 to 20 nM
19) C[C@@H](Oc1ccc2[nH]nc(-c3ccc(N4CC5(C4)CN(S(C)(=O)=O)C5)nc3)c2c1)c1cc(F)cc(F)c1 20 to 100 nM
20) COc1cc2[nH]nc(-c3ccc(N4CC5CC(C4)N5)nc3)c2cc1O[C@H](C)c1c(C)cnnc1C 1 to 20 nM
21) Cc1ncc(Cl)c([C@@H](C)Oc2ccc3[nH]nc(-c4cnn(C5CCN(C6CCC6)CC5)c4)c3c2)c1Cl 1 to 20 nM
22) C[C@@H](Oc1ccc2[nH]nc(-c3ccc(N4CCN5CCC[C@H]5C4)nc3)c2c1)c1c(Cl)cncc1Cl 1 to 20 nM
23) C[C@@H](Oc1ccc2[nH]nc(-c3cnc(N4CC[C@@H](C(C)(C)O)C4)c(C#N)c3)c2c1)c1c(Cl)cncc1Cl > 300 nM
24) C[C@@H](Oc1ccc2[nH]nc(-c3ccc(N4CC5(CCNC5)C4)nc3)c2c1)c1c(Cl)cncc1Cl 1 to 20 nM
25) COc1cc2[nH]nc(-c3cnc(N4CC(C)(C)C4)c(S(C)(=O)=O)c3)c2cc1O[C@H](C)c1c(Cl)cncc1Cl 100 to 300 nM
26) CCOC(=O)N1CC2(C1)CN(c1ccc(-c3n[nH]c4ccc(O[C@H](C)c5c(Cl)cnc(F)c5Cl)cc34)cn1)C2 100 to 300 nM
27) C[C@@H](Oc1ccc2[nH]nc(-c3cnc(N4CC(CC(F)(F)F)C4)c(C#N)c3)c2c1)c1c(Cl)cncc1Cl > 300 nM
